test: Plasma concentration in Balb/c mouse at 30 mg/kg, po after 4 hrs by LC-MS analysis; assay type: ADME, organism-based
QUANTITY_MEASURED: concentration at 4 h

Input CCCC(NC(=O)/C(C#N)=C/c1nc(Cl)ccc1Cl)c1ccc(OCCN2CCOCC2)cc1 (stereo unspecified) . Output concentration at 4 h: 0.0445 to 0.0571 µg/mL

====

assay: Half life in ip dosed Balb/c mouse by LC-MS analysis; type: ADME, organism-based; details: in vivo
QUANTITY_MEASURED: half-life

// CCCC(NC(=O)/C(C#N)=C/c1ccc2cccnc2n1)c1ccccc1 (stereo unspecified) : half-life value = 30 to 60 min

====

assay: Plasma concentration in Balb/c mouse at 10 mg/kg, po after 0.5 hrs by LC-MS analysis; type: ADME, organism-based
QUANTITY_MEASURED: concentration at 0.5 h

According to the records, this compound CCCC(NC(=O)/C(C#N)=C/c1ccc2cccnc2n1)c1ccccc1 (stereo unspecified) displays concentration at 0.5 h of 50.8 to 117 ng/mL

====

assay: Plasma concentration in Balb/c mouse at 10 mg/kg, iv after 0.5 hrs by LC-MS analysis; type: ADME, organism-based
QUANTITY_MEASURED: concentration at 0.5 h

Sure, the documented concentration at 0.5 h for CCCC(NC(=O)/C(C#N)=C/c1nc(Cl)ccc1Cl)c1ccc(OCCN2CCOCC2)cc1 (stereo unspecified) is 1220 to 1880 ng/mL

====

assay: AUClast in Balb/c mouse at 30 mg/kg, po by LC-MS analysis; type: ADME, organism-based; set-up: dose 30 mg/kg, route oral, time 0 - last; conditions: in vivo
QUANTITY_MEASURED: AUC(0-t)

The molecule listed as CCCC(NC(=O)/C(C#N)=C/c1nc(Cl)ccc1Cl)c1ccc(OCCN2CCOCC2)cc1 (stereo unspecified) shows AUC(0-t) equal to 291 to 349 ng·h/mL

====

assay: Plasma concentration in Balb/c mouse at 10 mg/kg, po after 7 hrs by LC-MS analysis; type: ADME, organism-based
QUANTITY_MEASURED: concentration at 7 h

Lab book: concentration at 7 h of CCCC(NC(=O)/C(C#N)=C/c1ccc2cccnc2n1)c1ccccc1 (stereo unspecified) noted as 11.4 to 15.9 ng/mL
